study.system: Human Factor D (Homo sapiens (Human), UniProt P00746)
Sequence (P00746 26-253): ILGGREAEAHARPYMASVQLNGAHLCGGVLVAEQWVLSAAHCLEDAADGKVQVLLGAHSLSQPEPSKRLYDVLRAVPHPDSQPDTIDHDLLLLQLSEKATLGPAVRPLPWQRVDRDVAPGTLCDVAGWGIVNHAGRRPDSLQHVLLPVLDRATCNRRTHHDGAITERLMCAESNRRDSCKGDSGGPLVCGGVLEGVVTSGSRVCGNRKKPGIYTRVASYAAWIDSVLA
experimental.details: Human Factor D Assay
Type: biochemical
measurement.context: Human Factor D 80 nM, substrate Z-L-Lys-SBzl, assay according to Example 3
Listing: IC50 of selected compounds

Answered cases to consult:
>>> print(df.to_string())
                           structure_string  value_kind  measured_result
0  CC(=O)c1cn(CC(=O)N2[C@H](C(=O)N[C@H](C)C(F)=C(C)C)C[C@@]3(C)C[C@@H]23)c2c(C)cc(-c3cnc(C)nc3)cc12        IC50        < 1000 nM
1  CC(=O)c1cn(CC(=O)N2C[C@@](F)(CF)C[C@H]2C(=O)Nc2nc(C(F)(F)F)ccc2C)c2c(C)cc(-c3cnc(C)nc3)cc12        IC50        < 1000 nM

The compound listed as CC(=O)c1cn(CC(=O)N2[C@H](C(=O)N[C@H](C)C(F)=C(C)C)C[C@@]3(C)C[C@@H]23)c2c(C)cc(-c3cnc4cc(C)nn4c3)cc12 has a reported IC50 of < 1000 nM
